- assayed.system: T1, recombinant mouse DLL4 (C-terminally His-tagged extracellular domain, R&D Systems) (mouse, UniProt Q9JI71 27-532)
- T1 construct: extracellular domain; also called rmDLL4; mDLL4
- T1 sequence (Q9JI71 27-532): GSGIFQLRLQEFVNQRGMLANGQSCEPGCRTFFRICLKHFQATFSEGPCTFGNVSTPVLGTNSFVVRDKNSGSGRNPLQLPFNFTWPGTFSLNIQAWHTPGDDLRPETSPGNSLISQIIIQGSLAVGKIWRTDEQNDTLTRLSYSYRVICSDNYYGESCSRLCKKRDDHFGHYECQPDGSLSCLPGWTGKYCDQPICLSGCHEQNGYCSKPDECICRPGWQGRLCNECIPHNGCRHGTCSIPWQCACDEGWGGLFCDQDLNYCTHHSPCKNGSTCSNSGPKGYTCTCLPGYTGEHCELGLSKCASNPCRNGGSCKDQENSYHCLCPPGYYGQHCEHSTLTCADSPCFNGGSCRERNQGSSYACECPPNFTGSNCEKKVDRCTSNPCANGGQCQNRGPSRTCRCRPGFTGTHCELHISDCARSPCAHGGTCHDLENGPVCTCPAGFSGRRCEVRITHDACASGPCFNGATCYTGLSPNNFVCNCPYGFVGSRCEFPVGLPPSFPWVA
- assay.text: SPR (Biacore); summary table
reported.property: Kd (nM)
Kindly provide the numeric value in nM only, without the unit symbol.

// field: Kd; key: DLLBII115A05 (VHH, not shown: small tags and cut ends, parent VHH; also called 115A05 (wt); 115A5) VHH: EVQLVESGGGLVQPGGSLRLSCAASGFTFGSYDMSWVRRSPGKGPEWVSSINSGGGSTYYADFVKGRFTISRDNAKNTLYLQMNSLKPEDTAVYYCAADRYIRARQGDYWGAYEYDYWGQGTQVTVSS ; value = 53

Per the record, DLLBII101G08 (VHH, not shown: small tags and cut ends, parent VHH; also called 101G08 (wt); 101G8) VHH: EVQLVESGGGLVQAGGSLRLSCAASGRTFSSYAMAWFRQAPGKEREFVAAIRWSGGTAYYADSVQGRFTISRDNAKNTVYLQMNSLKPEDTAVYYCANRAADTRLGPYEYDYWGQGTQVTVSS has Kd of 60

# binder DLLBII129D08 (VHH, not shown: small tags and cut ends) VHH: EVQLVESGGGLVQAGGSLRLSCAASGRTFSSYAMAWYRQAPGKEREYVAAIRWSGGTAYYADSVQGRFTISRDNAKNTVYLQMNSLKPEDTAVYYCANRAPDTRLEPYLYDYWGQGTQVTVSS ; its Kd = 0.8

response.value for DLLBII136C07 (VHH, not shown: small tags and cut ends) VHH: EVQLVESGGGLVQPGGSLRLSCAASGFTFGSYDMSWVRRSPGKGPEWVSSINSGGGSTYYADYVKGRFTISRDNAKNTLYLQMNSLKPEDTAVYYCAADRYIWARQGEYWGAYEYDYWGQGTQVTVSS (field: Kd) = 2.6
